FYI, the data here is from ChEMBL document CHEMBL3588826.

Measured TD50 at 0.25 h accompanies every entry in the list below.
Test: Neurotoxicity in ip dosed albino Carworth Farms No. 1 mouse measured at 0.25 hrs by rotarod test
Format: toxicity, organism-based
Details: in vivo
assay.metric: TD50 at 0.25 h (mg/kg)

>>> test_result("COC[C@@H](NC(C)=O)C(=O)NCc1ccc(Oc2cccc(Cl)c2)cc1")
47
>>> test_result("COC[C@@H](NC(C)=O)C(=O)NCc1ccc(Oc2cccc(C)c2)cc1")
65
>>> test_result("COC[C@@H](NC(C)=O)C(=O)NCc1ccc(Oc2cccc(OC)c2)cc1")
85
>>> test_result("COC[C@@H](NC(C)=O)C(=O)NCc1ccc(Oc2cccc(OC(F)(F)F)c2)cc1")
40

---

Assay: Half life in Sprague-Dawley rat at 5 mg/kg, iv
Type: ADME, organism-based
Conditions: in vivo
assay.metric: half-life (h)

>>> test_result("COC[C@@H](NC(C)=O)C(=O)NCc1ccc(Oc2cccc(OC(F)(F)F)c2)cc1")
1.75

---

Experiment: Ratio of drug level in brain to plasma in Sprague-Dawley rat at 5 mg/kg, iv and 20 mg/kg, po measured after 6 hrs
Type: ADME, organism-based
Conditions: read-out: BPR
assay.metric: Kp at 6 h

>>> test_result("COC[C@@H](NC(C)=O)C(=O)NCc1ccc(Oc2cccc(OC(F)(F)F)c2)cc1")
1.2

---

Experiment: Behavioural toxicity in po dosed albino Sprague-Dawley rat measured at 0.5 hrs
Type: organism-based
Settings: in vivo
assay.metric: TD50 at 0.5 h

>>> test_result("COC[C@@H](NC(C)=O)C(=O)NCc1ccc(Oc2cccc(Cl)c2)cc1")
"210 mg/kg"
>>> test_result("COC[C@@H](NC(C)=O)C(=O)NCc1ccccc1 [LACOSAMIDE]")
"> 500 mg/kg"

---

Target: CYP2C8 (Homo sapiens)
Sequence (P10632 whole entry): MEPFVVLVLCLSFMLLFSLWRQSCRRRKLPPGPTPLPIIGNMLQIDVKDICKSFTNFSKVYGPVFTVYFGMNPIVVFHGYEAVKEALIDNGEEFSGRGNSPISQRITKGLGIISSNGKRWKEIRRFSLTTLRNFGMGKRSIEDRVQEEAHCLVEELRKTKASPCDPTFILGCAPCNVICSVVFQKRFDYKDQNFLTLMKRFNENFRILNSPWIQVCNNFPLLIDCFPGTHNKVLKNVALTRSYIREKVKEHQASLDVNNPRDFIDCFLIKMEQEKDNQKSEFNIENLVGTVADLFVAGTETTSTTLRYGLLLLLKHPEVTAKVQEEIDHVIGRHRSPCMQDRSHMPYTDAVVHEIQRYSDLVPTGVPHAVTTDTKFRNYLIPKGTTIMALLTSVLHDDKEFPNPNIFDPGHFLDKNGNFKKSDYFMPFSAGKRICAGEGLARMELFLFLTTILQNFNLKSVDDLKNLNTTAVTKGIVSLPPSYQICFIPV
Experiment: Time-dependent inhibition of human CYP2C8 measured after 30 mins preincubation period
Assay type: ADME
assay.metric: inhibition at 0.5 h (%)

>>> test_result("COC[C@@H](NC(C)=O)C(=O)NCc1ccc(Oc2cccc(OC(F)(F)F)c2)cc1")
16

---

Assay: Protective index, ratio of TD50 for neurotoxicity in ip dosed albino Carworth Farms No. 1 mouse to ED50 for anticonvulsant activity in ip dosed MES albino Carworth Farms No. 1 mouse model
Type: toxicity, organism-based
Conditions: in vivo, read-out: Ratio TD50/ED50
Measured selectivity ratio by item
assay.metric: selectivity ratio

>>> test_result("COC[C@@H](NC(C)=O)C(=O)NCc1ccc(Oc2cccc(Cl)c2)cc1")
5
>>> test_result("COC[C@@H](NC(C)=O)C(=O)NCc1ccc(Oc2cccc(OC(F)(F)F)c2)cc1")
6.2
>>> test_result("COC[C@@H](NC(C)=O)C(=O)NCc1ccc(Oc2cccc(OC)c2)cc1")
6.5
>>> test_result("COC[C@@H](NC(C)=O)C(=O)NCc1ccc(Oc2cccc(F)c2)cc1")
4.2
>>> test_result("COC[C@@H](NC(C)=O)C(=O)NCc1ccc(Oc2cccc(C)c2)cc1")
4.6

---

Test: Behavioural toxicity in ip dosed albino Sprague-Dawley rat measured at 0.25 hrs
Format: organism-based
Conditions: in vivo
assay.metric: TD50 at 0.25 h (mg/kg)

>>> test_result("COC[C@@H](NC(C)=O)C(=O)NCc1ccc(Oc2cccc(C)c2)cc1")
140
